The reported numbers originate from patent US6730480B1.

Molecular target: recombinant human sphingosine kinase (Homo sapiens)
Construct: The full length SPHK cDNA cloned into pGEX4T2 was transformed into E. coli BL21; GST (N, cleaved yes); made in house; host or cells: E. coli BL21
Assay: Sphingosine kinase enzyme assay with recombinant human SK expressed in E. coli
Type: biochemical
Details: bulk solution concentration
RECORDED_METRIC: Ki (µM)
// note: answer is a bare numeric in µM

I am curious: what Ki value has been reported for `CCCCCCCCCCCCC/C=C/[C@@H](O)[C@H](CO)[N+](C)(C)C` ?
3.8

###

Molecular target: recombinant human sphingosine kinase (Homo sapiens, UniProt Q9NYA1)
Construct: The full length SPHK cDNA cloned into pGEX4T2 was transformed into E. coli BL21; GST (N, cleaved yes); made in house; host or cells: E. coli BL21
Sequence (Q9NYA1 whole entry): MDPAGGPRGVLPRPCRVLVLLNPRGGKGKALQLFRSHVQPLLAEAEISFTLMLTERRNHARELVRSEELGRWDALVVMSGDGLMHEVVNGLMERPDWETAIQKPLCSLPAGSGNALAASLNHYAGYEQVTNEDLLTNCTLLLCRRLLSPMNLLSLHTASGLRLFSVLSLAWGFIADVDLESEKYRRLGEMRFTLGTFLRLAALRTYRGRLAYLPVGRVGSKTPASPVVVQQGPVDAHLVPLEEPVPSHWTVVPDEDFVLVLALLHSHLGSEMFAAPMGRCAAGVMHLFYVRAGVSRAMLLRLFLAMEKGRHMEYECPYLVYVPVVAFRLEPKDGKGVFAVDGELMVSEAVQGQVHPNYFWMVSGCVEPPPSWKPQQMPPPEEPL
Assay: Sphingosine kinase enzyme assay with recombinant human SK expressed in E. coli
Format: biochemical
Details: ADP 0.1 to 5 mM, with respect to ATP
RECORDED_METRIC: pKi
Please note pKi is a logarithmic value: minus log10 of concentration in mol/L. Answer with that number alone.

I am curious: what pKi value has been reported for `Nc1ncnc2c1ncn2[C@@H]1O[C@H](COP(=O)(O)OP(=O)(O)O)[C@@H](O)[C@H]1O` ?
3.05
